Tested on: Calu-3
assayProcedure: cell viability relative to DMSO; higher = less toxic
statedConditions: 72 h; 1000 nM
Collected cell viability values appear next to each entry.
Write it as a number; the unit % goes unstated.

Below are worked cases with known answers.
COC(=O)Nc1ccc2[nH]cc(CCNC(C)=O)c2c1 97.8
CCN1CCCC1=O 98.6
C[C@H]1C[C@H]2[C@@H]3CCC4=CC(=O)C=C[C@]4(C)[C@@]3(F)[C@@H](O)C[C@]2(C)[C@@]1(O)C(=O)CO 102
O=C(NOCCO)c1cc(CN2OCCCC2=O)c(F)c(F)c1Nc1ccc(I)cc1F 43.4
O=c1[nH]c(=O)n([C@H]2C[C@H](O)[C@@H](CO)O2)cc1I 93

## Task Could you share which cell viability value was measured for `COc1cn(-c2ccc(-n3cccn3)cc2F)nc(-c2ccnn2-c2ccccc2)c1=O` ?
## Result 102

## Task Could you share which cell viability value was measured for `COc1cc(SC)ccc1C(=O)N1CCC(Cc2ccccc2)CC1` ?
## Result 103

## Task Could you share which cell viability value was measured for `O=S(=O)(NCCCCCCc1ccccc1)c1cccc2c(Cl)cccc12` ?
## Result 96.8

## Task Could you share which cell viability value was measured for `COc1cc(O)c(C(=O)c2ccccc2)cc1S(=O)(=O)O` ?
## Result 109

Hey, just so you know, these numbers are from the supplement of paper PMC13380429.
